Molecular target: human mGluR2 receptor (Homo sapiens, UniProt Q14416)
Construct: expressed in transfected cells; host or cells: CHO cells (membrane preparation)
Sequence (Q14416 19-872): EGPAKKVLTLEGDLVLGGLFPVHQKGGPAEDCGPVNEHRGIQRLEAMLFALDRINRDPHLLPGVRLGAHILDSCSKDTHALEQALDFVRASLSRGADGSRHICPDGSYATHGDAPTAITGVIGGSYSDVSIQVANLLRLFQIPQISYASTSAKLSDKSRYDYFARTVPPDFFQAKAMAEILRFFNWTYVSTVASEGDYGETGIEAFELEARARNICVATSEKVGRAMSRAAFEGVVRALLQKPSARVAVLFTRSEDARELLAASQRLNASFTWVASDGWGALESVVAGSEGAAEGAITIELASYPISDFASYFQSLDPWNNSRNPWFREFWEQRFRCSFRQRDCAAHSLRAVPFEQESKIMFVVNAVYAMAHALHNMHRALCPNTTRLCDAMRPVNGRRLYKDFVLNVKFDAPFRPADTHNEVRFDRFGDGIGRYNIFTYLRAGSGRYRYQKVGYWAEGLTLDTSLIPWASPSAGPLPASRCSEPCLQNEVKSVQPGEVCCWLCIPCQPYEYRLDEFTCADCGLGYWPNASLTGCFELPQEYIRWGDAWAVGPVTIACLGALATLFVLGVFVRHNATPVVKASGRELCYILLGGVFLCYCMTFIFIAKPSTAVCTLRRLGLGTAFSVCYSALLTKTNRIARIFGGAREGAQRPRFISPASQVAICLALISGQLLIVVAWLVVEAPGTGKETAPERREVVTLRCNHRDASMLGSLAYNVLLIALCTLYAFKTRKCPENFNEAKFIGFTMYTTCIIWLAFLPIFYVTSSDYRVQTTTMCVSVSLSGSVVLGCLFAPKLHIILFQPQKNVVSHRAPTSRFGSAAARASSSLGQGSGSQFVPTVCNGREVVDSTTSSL
Assay: [35S]GTPγS binding assay (GTPγS-PAM): positive allosteric modulation in presence of glutamate at EC25, membranes from transfected CHO cells
Format: biochemical
Conditions: in presence of mGluR2 agonist glutamate at predetermined EC25 concentration, averages of duplicate values of 11-concentration response curves, read-out: GTPgS - hR2 PAM pEC50 (converted)
value kind: EC50 (nM)

query smiles: CC(C)CCn1ccc(-c2ccc(CN(C)C)cc2)c(C#N)c1=O
value kind: EC50
reported: 6310
--
query smiles: N#Cc1c(-c2ccccc2)ccn(CC2CCCCC2)c1=O
value kind: EC50
reported: 1580
--
query smiles: CC(C)CCn1ccc(-c2ccc(N3CCOc4ccccc43)cc2)c(C#N)c1=O
value kind: EC50
reported: 79.4

[1] CC(C)CCn1ccc(-c2ccc(OC3CCCC3)c(Cl)c2)c(C#N)c1=O
[2] CC(C)CCn1ccc(N2CCC3(CC2)COc2ccccc2O3)c(C#N)c1=O
[3] COc1ccc(-c2ccn(CCC(C)C)c(=O)c2C#N)cc1OC
Order the 3 compounds from highest to lowest EC50. Please respond with the labels ordered as the question requires. 3, 2, 1

[P] CC(C)CCn1ccc(N2CCC(c3cccc(C(F)(F)F)c3)CC2)c(C#N)c1=O
[Q] N#Cc1c(N2CCN(Cc3ccccc3)CC2)ccn(Cc2ccc(OC(F)(F)F)cc2)c1=O
Of P and Q , which one carries the higher reported EC50? Identify your selection by its label. Q

* * *

Molecular target: human mGluR2 receptor (Homo sapiens)
Construct: expressed in transfected cells; host or cells: CHO cells (membrane preparation)
Assay: [35S]GTPγS binding assay (GTPγS-PAM): positive allosteric modulation in presence of glutamate at EC25, membranes from transfected CHO cells
Assay type: biochemical
Conditions: in presence of mGluR2 agonist glutamate at predetermined EC25 concentration, averages of duplicate values of 11-concentration response curves, read-out: GTPgS - hR2 PAM pEC50 (converted)
value kind: EC50 (µM)

molecule: CC(C)CCn1ccc(OCCOc2ccccc2)c(C#N)c1=O
endpoint unit: µM
EC50: 1.58

molecule: CC(C)CCn1ccc(-c2ccccc2F)c(C#N)c1=O
endpoint unit: µM
EC50: 3.98

molecule: CC(=O)Nc1ccc(-c2ccn(CCC(C)C)c(=O)c2C#N)cc1F
endpoint unit: µM
EC50: 3.98

[A] CCCCn1ccc(-c2ccc(Oc3ccncn3)cc2)c(C#N)c1=O
[B] CC(C)CCn1ccc(N2CCC(Cc3ccccc3)CC2)c(C#N)c1=O
[C] COCCNc1ccc(-c2ccn(CCC(C)C)c(=O)c2C#N)cc1
Sort these molecules on EC50 so the largest reading comes first. Answer format: the labels, ordered as requested. A, C, B
(A: 5.01 µM, C: 1.58 µM, B: 0.1 µM)

[A] COc1ccc(-c2ccn(CC3CCCCC3)c(=O)c2C#N)cc1
[B] CC(C)CCn1ccc(N2CCN(CCc3ccccc3)CC2)c(C#N)c1=O
Return label of the item with the larger EC50. Candidates: A , B . Please reply using the label of the selected record. A

[I] CC(C)CCn1ccc(-c2ccc(C(C#N)c3ccn(CCC(C)C)c(=O)c3C#N)cc2)c(C#N)c1=O (stereo not shown)
[II] CC(C)CCn1ccc(-c2ccc(CC#N)cc2)c(C#N)c1=O
Out of I and II , name the one with the higher EC50. Kindly state the label of the option you pick. II
(II: 2.51 µM, I: 0.794 µM)
